Tested on: SNB-75
procedure summary: NCI tumour cell line growth inhibition, 48 h
The source made the active and inactive calls. Cut-off read from the data, not from the text of the source: active = GI50 up to about 1.1 µM and inactive = higher.
Bench note: report the call from Y (active), N (inactive)

Any idea what this test logged for `COc1ccc(-c2c3c(nc4[nH]c(=S)[nH]c(=S)c24)CCCC3)cc1OC` ?
N

Any idea what this test logged for `COc1cc(C(=O)O)c(-c2cc3c(cc2C=O)OCO3)c(OC)c1OC` ?
N

Any idea what this test logged for `C/C(=N\Nc1nc2ccccc2s1)c1cnccn1` ?
N

Any idea what this test logged for `Oc1cc(-c2ccccc2)nc2cc(Cl)ccc12` ?
Y

Any idea what this test logged for CCOC(=O)CCC(NC(=O)N1CCN(c2c(C)nc(C)nc2O)CC1)C(=O)OCC (configuration not stated) ?
Y

Any idea what this test logged for `O=C1C=CC2(C=C1)C[C@H](NC(=O)OCc1ccccc1)C(=O)O2` ?
N

Any idea what this test logged for CCN(CC)CC(O)C1CCC(c2ccccc2)CC1 (configuration not stated) ?
N

Any idea what this test logged for `CCN(CC)CC(=O)/C=C/c1ccc(C)cc1` ?
N

Any idea what this test logged for `Cc1cc(C)c(N)c(CO)c1` ?
N

Any idea what this test logged for `BrCC[N+]12CC[N+](CCBr)(CC1)C2` ?
N

New cases:
Any idea what this test logged for COC(=O)C1C(O)C(C)C(O)C(C)C=C(C)C2=C3C(=C(C)C(=O)c4c(O)c(c(C)c(OC(C)=O)c43)NC(=O)C(C)=C/C=C\C(C)C(O)C(C)C1O)OCO2 (configuration not stated) ?
N

Any idea what this test logged for CC(C)CC[C@H](O)[C@@H](C)[C@H]1[C@@H](OC2OC(C)C(O)C(O)C2O)C[C@H]2[C@@H]3CC=C4C[C@@H](O)CC[C@]4(C)[C@H]3[C@@H](O)C[C@]12C (some centres not stated) ?
N

---

System: IGROV-1
procedure summary: NCI tumour cell line growth inhibition, 48 h
Calls of active or inactive are those of the source. Cut-off read from the data, not from the text of the source: active = GI50 up to about 1.1 µM and inactive = higher.
A collection of molecules and their measured GI50

Example results:
Please report the measured GI50 for COc1cccc(N2C(=O)C3CC(CC(C)(C)C)c4c([nH]c5ccccc45)C3C2=O)c1 (stereo unspecified)
> 10 µM (inactive)

Please report the measured GI50 for `C=Cc1c(C)c(O)cc2c1-c1ccc(O)c(C)c1CC2`
16.6 µM (inactive)

Please report the measured GI50 for `COc1ccccc1OCC(=N/NC(=O)c1ccncc1)/N=C/c1ccncc1`
> 100 µM (inactive)

Please report the measured GI50 for `COc1ccc(-c2nc(N)c(C#N)c3c2CCSc2ccc(C)cc2-3)cc1OC`
23.1 µM (inactive)

Please report the measured GI50 for COP(=O)(OC)C(Cc1c[nH]c2ccccc12)NC(=O)OCc1ccccc1 (stereo unspecified)
> 100 µM (inactive)

Field: next molecule
Please report the measured GI50 for COC1=CC(C2c3cc4c(cc3[C@@H](Nc3ccc([N+](=O)[O-])cc3)C3COC(=O)[C@H]23)OCO4)=CC(=O)C1=O (stereo partly specified)
13 µM (inactive)

---

Tested on: SK-MEL-5
procedure summary: NCI tumour cell line growth inhibition, 48 h
Activity calls are given as the source filed them. Cut-off read from the data, not from the text of the source: active = GI50 up to about 1.1 µM and inactive = higher.
Bench note: report the call from 1 for active, 0 for inactive

Any idea what this test logged for `COc1ccc(C(=O)Cn2c(C(=O)/C=C/c3ccco3)nc3ccccc32)cc1` ?
0

Any idea what this test logged for COC(=O)C[S+]([O-])c1ccccc1 (stereo not given) ?
0

Any idea what this test logged for `CCc1cccc(C(C)C)c1C1C(=O)C(=O)N(c2nc3ccccc3s2)C(=O)C1=O` ?
0

Any idea what this test logged for `C/N=C(N)/N=C(\N)Nc1cc2ccccc2c2ccccc12` ?
0

New cases:
Any idea what this test logged for Nc1nc(Cl)c(N)c(NCC2(CO)CC(Cc3ccccc3)C2)n1 (stereo not given) ?
1
